A collection of compounds and their measured IC50
Test system: LNCaP
assay-summary: Cell growth inhibition assay, prostate cancer cell line LNCaP (medium with 10 ng/mL IL-6)
Type: cell-based
condition-parameters: Homo sapiens, medium supplemented with 10 ng/mL of IL-6, 10,000 cells/well

Record excerpt, results attached:
CS(=O)(=O)Nc1ccc2c(Cl)c(C(=O)Nc3cccc(-c4ccc(F)cc4F)c3)sc2c1 = > 10 µM
O=C(Nc1cccc(-c2ccccc2C(F)(F)F)c1)c1nc2ccc([N+](=O)[O-])cc2s1 = > 10 µM

Here's the next entry for you.
Under LNCaP: IC50 value of CS(=O)(=O)Nc1ccc2cc(C(=O)Nc3cc(OCC(F)F)cc(C(F)(F)c4cccc(C#N)c4)c3)[nH]c2c1 ? > 10 µM

---

Test system: DU-145
assay-summary: Cell growth inhibition assay, prostate cancer cell line DU-145
Type: cell-based
condition-parameters: Homo sapiens, DU-145 prostate cancer cell line
Quick rule for you: IC50 under 0.04 µM gets Y, anything else gets N.

Record excerpt, results attached:
CCS(=O)(=O)Nc1ccc2sc(C(=O)Nc3cc(Cl)cc(C(C)(C)c4cc(OC(C)C)cc(OC(F)(F)F)c4)c3)cc2c1 [Example 202] = Y
CS(=O)(=O)Nc1cc2cc(C(=O)Nc3cc(Cl)cc(Oc4ccc(Cl)s4)c3)sc2cc1Cl [Example 473] = Y

I wonder whether COc1cc(OC(F)(F)F)cc(C(C)(C)c2cccc(NC(=O)c3cc4cc(NS(C)(=O)=O)ccc4s3)c2)c1 [Example 33] has IC50 below 0.04 µM. Can you tell? Y

is_below(IC50, 0.04 µM) for CS(=O)(=O)Nc1ccc2sc(C(=O)Nc3cc(Cl)cc(-c4cccs4)c3)cc2c1 [Example 336] ? N

Problem: For the molecule Cc1ccc(C(C)(C)c2cc(Cl)cc(NC(=O)c3cc4cc(NS(C)(=O)=O)ccc4s3)c2)s1 [Example 178] , is IC50 under 0.04 µM? Y

Here's an entry: COc1cc(OC(F)(F)F)cc(C(C)(C)c2cc(Cl)cc(NC(=O)c3cc4cc(NS(C)(=O)=O)ccc4s3)n2)c1 [Example 150] . Is its IC50 below 0.04 µM? Y

I wonder whether CC(C)Oc1cc(CN2CCN(c3nnc(C(C)C)o3)CC2)cc(C(C)(C)c2cc(Cl)cc(NC(=O)c3cc4cc(NS(C)(=O)=O)ccc4s3)c2)c1 [Example 135] has IC50 below 0.04 µM. Can you tell? N

Is IC50 of CC(C)Oc1cc(OC(F)(F)F)cc(C(C)(C)c2cc(Cl)cc(NC(=O)c3cc4cc(N(CCN5CCOCC5)S(C)(=O)=O)c(F)cc4s3)c2)c1 [Example 217] strictly below 0.04 µM? N

Consider CC(C)(c1ccccc1)c1cc(Cl)cc(NC(=O)c2cc3cc(NS(C)(=O)=O)ccc3s2)c1 [Example 64] . Does its IC50 lie strictly below 0.04 µM? N

Determine if COc1ccc(Oc2cc(Cl)cc(NC(=O)c3cc4cc(NS(C)(=O)=O)ccc4s3)c2)cc1 [Example 447] shows IC50 strictly lower than 0.04 µM. N

Quick check: does CC(C)Oc1cc(CN2CCS(=O)(=O)CC2)cc(C(C)(C)c2cc(Cl)cc(NC(=O)c3cc4cc(NS(C)(=O)=O)ccc4s3)c2)c1 [Example 132] have IC50 under 0.04 µM? N

Regarding CC(C)Oc1cc(CN2CCN(C(=O)N(C)C)CC2)cc(C(C)(C)c2cc(Cl)cc(NC(=O)c3cc4cc(NS(C)(=O)=O)ccc4s3)c2)c1 [Example 133] , kindly confirm whether its IC50 is beneath 0.04 µM. N

Strictly below 0.04 µM: is that where IC50 of CC(C)Oc1cc(Br)cc(C(C)(C)c2cc(Cl)cc(NC(=O)c3cc4cc(NS(C)(=O)=O)ccc4s3)c2)c1 [Example 91] sits? Y

Please state whether IC50 is below 0.04 µM for CC(C)Oc1cc(OC(F)(F)F)cc(C(C)(C)c2cc(Cl)cc(NC(=O)c3cc4cc(NS(=O)(=O)CCN(C)O)ccc4s3)c2)c1 [Example 210] N
